Tested on: TTK;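 also: KINOMEscan kinase panel screen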
test parameters: concentration: 1 μM, replicates: in singlicate; n = 1
quantity name: %Inh (%)
Numbers only, in %.

# map each molecule to its %Inh
1. O=C(NC1CCN(c2ccnc(Nc3ccc(F)cc3)n2)C1)c1cc2ccccc2s1 (centres unmarked)
2. Clc1ccc(-c2nn3ncccc3c2-c2ccnc(Nc3ccc4c(c3)OCCO4)n2)cc1
3. c1ccc(-c2n[nH]cc2Nc2ccnc3ccccc23)nc1

RESULT:
[17, 2, 64]

# map each molecule to its %Inh
1. Cl.Cl.NCC(NC(=O)c1cc(-c2ccccc2)c(-c2ccnc3[nH]ccc23)s1)c1ccccc1 (centres unmarked)
2. COc1ccc(Nc2nccc(N3CCC(NC(=O)Nc4cccc(OC)c4)C3)n2)cc1 (centres unmarked)
3. CNC(=O)c1ccccc1Nc1nc(Nc2ccc(N3CCOCC3)cc2)ncc1Cl.Cl
4. Cl.Cl.NCC(NCc1ccc(-c2ccnc3[nH]ccc23)s1)c1ccccc1 (centres unmarked)
5. Fc1ccc(-c2ncn(C3CCNCC3)c2-c2ccnc(Oc3ccc(-c4ccccc4)cc3)n2)cc1

RESULT:
[0, 0, 95, 0, 22]

Data credit: paper PMC5540273
